Attribute: Population Healthy Nuclei (%)
- Test system: HEK-293T
- Assay name: Multiplex assay against HEK293T
- Format: toxicity, cell-based
- Measurement conditions: human, 12 h, 1 µM, compound concentration 1 uM, replicate 1
Answer with a number only, understood to be in %.

Example entries and their recorded answers appear below.
[
  {
    "Compound": "CC1(COc2ccc3c(c2)ncn3-c2ccc3cccc(N4CCC(N)CC4)c3n2)COC1",
    "Tested target": "HEK-293T",
    "Reading unit": "%",
    "Numeric readout": 79
  },
  {
    "Compound": "O=C(NCC(=O)N1CC[C@H](N[C@H]2CC[C@@](O)(c3ccc(-c4ncccn4)cn3)CC2)C1)c1cccc(C(F)(F)F)c1",
    "Tested target": "HEK-293T",
    "Reading unit": "%",
    "Numeric readout": 80
  },
  {
    "Compound": "CN(C)CCCc1cc(C(=O)Nc2ccc(-c3ccncc3)cc2)ccc1O.Cl.Cl",
    "Tested target": "HEK-293T",
    "Reading unit": "%",
    "Numeric readout": 79
  }
]

Next compound, please.
Reported Population Healthy Nuclei (%) of COc1ccc2c(c1)C(C(=O)N(Cc1ccc(N(C)C)cc1)c1ccc(C(C)C)cc1)CCC2.Cl (centres undefined) : 80
